# STUDY_TARGET: T1, recombinant hSIRPa (Sino Biologicals, reference 11612-H08H) (human, UniProt P78324 31-370)
# T1 construct: also called SIRPa-His; human SIRPa-His; not shown: His tag (histidine tail)
# T1 sequence (P78324 31-370 limits assumed): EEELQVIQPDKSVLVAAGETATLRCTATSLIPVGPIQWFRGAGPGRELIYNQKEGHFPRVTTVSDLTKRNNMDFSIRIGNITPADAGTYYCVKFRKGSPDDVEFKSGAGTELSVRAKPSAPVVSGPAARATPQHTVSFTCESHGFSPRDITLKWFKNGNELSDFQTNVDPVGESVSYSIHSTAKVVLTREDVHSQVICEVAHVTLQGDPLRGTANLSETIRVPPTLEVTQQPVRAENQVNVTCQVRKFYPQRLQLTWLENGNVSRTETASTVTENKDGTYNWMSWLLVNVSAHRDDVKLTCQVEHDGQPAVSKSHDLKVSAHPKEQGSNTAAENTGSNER
# ASSAY_SUMMARY: SPR (Biacore); SIRPa-His immobilized on CM5 chip, antibody injected
READOUT: koff (s⁻¹)
Form entry: value (s⁻¹) — number only.

Prompt: Recorded koff of Kwar23 (antibody, V domains shown) VH: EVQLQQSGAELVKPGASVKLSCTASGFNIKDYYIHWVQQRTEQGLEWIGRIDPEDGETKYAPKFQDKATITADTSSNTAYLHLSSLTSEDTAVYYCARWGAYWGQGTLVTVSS VL: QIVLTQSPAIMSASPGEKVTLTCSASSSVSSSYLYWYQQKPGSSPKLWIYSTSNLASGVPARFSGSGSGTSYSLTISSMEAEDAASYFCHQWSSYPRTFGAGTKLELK , please.
Response: 8.95e-05
